assay: Distribution coefficients in octanol–water system; format: physicochemical; details: n-octanol/pH 7.4 phosphate buffer, pH 7.4, n-octanol/pH 7.4 phosphate buffer, 25 °C; read-out: Log D7.4
readoutLabel: logD

Input line: Request the reported logD associated with `COc1ccc(-c2cc(=O)c3c(O)cc(O)cc3o2)cc1`
Output line: > 3

---

Assay: Oral pharmacokinetic study in rats
Type: in vivo
Details: rat, plasma, PO 100 mg/kg
Procedure: The rats were fasted overnight before the experiment and anesthetized using an intramuscular injection of zoletil at 20 mg/kg. The femoral artery and vein were cannulated with a polyethylene tube (Clay Adams, Parsippany, NJ, USA). Acacetin (dissolved in a vehicle composed of DMSO, ethanol, and PEG400 (10:5:85, v/v/v)) was administered intravenously (10 mg/kg) or orally (100 mg/kg) to rats. […]
readoutLabel: Cmax (µg/mL)
Answers are plain numbers, in µg/mL.

Input line: Request the reported Cmax associated with COc1ccc(-c2cc(=O)c3c(O)cc(O)cc3o2)cc1 [acacetin, Acacetin]
Output line: 0.0521
